FYI, the data here is from ChEMBL document CHEMBL4680134.

Reported MIC by item:
- experimentalSystem: Multidrug efflux pump subunit AcrB (Escherichia coli (strain K12)) (UniProt P31224)
- Sequence (P31224 whole entry): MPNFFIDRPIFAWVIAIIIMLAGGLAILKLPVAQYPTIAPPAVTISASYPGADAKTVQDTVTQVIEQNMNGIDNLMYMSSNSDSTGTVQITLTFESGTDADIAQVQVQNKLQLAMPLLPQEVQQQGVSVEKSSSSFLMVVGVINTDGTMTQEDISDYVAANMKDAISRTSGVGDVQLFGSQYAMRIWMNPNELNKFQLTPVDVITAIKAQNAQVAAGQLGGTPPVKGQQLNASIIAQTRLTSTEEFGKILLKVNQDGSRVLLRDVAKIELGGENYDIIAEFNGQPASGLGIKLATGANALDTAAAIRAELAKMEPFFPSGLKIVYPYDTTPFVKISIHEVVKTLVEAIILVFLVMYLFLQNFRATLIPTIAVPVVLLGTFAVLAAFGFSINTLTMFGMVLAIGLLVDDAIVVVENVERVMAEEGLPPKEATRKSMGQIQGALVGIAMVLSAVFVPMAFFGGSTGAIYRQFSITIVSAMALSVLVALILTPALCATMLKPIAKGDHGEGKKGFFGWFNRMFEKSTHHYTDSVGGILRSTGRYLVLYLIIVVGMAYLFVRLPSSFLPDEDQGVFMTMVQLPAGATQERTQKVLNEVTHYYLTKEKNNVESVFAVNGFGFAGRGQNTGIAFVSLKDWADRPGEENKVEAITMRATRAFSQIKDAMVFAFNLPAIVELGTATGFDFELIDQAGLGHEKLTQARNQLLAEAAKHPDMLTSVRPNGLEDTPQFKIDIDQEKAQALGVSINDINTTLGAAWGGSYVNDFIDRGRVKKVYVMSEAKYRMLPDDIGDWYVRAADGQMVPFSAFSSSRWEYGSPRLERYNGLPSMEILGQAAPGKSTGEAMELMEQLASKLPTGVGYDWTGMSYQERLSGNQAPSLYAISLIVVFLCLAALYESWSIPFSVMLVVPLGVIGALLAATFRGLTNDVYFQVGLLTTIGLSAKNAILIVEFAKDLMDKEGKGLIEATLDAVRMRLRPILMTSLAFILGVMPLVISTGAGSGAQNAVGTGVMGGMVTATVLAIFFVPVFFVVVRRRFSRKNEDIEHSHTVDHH
- testDetails: Inhibition of AcrB in Escherichia coli BW25113 assessed as potentiation of tetraphenylphosphonium induced antibacterial activity by measuring tetraphenylphosphonium MIC at 256 ug/ml measured after 18 hrs by checkerboard titration method (reference value: 1024 ug/ml)
- assayContext: dose 256.0 µg/ml
Note to self: number, then unit, no commentary.

In the examples that follow, each entry is paired with its recorded MIC.
{"columns": ["compound", "result"],
 "data": [
  ["Oc1ccc(CCCCc2ccc(Br)cc2)cc1O", "512 µg/mL"],
  ["Oc1ccc(CCCc2ccc(O)c(O)c2)cc1O", "512 µg/mL"],
  ["Oc1ccc(CCCCCCCc2ccc(O)c(O)c2)cc1O", "512 µg/mL"]
]}

Dear colleague, I am looking for the recorded MIC of the following compound: `Oc1ccc(CCCCc2ccc(O)c(O)c2)cc1O`
512 µg/mL

Okay, and `Oc1ccc(CCCCc2cc(O)c(O)c(O)c2)cc1O` ?
256 µg/mL

Okay, and `Oc1ccc(CCCCCc2ccc(O)c(O)c2)cc1O` ?
32 µg/mL

Okay, and `Oc1ccc(CCCCc2cc3cccc4ccc5cccc2c5c43)cc1O` ?
256 µg/mL
